Biological target: native mouse MET on living cells (mouse, UniProt P16056 25-1379)
Experiment: cell-based or functional assay
measurementKind: scatter score 0-4, MLP29, 0.012 nM (score)
State just the number; it will be interpreted in score.

These solved cases illustrate the format of a correct answer.
binder | scatter score 0-4, MLP29, 0.012 nM / score
71C3 chimeric llama-human IgG1 mAb (antibody, V domains shown, llama VH on human IgG1 CH1-CH2-CH3, llama VL on human lambda CL) VH: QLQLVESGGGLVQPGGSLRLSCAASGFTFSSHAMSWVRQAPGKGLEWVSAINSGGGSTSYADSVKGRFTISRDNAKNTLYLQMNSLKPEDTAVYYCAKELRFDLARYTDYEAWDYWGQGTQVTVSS VL: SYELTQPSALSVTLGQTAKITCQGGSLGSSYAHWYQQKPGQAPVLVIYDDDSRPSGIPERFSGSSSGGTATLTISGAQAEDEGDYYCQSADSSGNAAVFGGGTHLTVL | 0
71G2 chimeric llama-human IgG1 mAb (antibody, V domains shown, llama VH on human IgG1 CH1-CH2-CH3, llama VL on human lambda CL) VH: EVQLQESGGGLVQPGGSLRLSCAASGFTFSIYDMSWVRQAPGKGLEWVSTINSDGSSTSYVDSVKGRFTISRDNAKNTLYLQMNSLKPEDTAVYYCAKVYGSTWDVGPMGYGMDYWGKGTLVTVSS VL: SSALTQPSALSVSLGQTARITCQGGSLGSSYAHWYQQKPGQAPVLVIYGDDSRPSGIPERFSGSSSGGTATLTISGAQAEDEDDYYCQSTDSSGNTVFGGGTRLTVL | 1

Could you now consider this next binder?
Prompt line: Any idea what scatter score 0-4, MLP29, 0.012 nM was measured for 71A3 chimeric llama-human IgG1 mAb (antibody, V domains shown, llama VH on human IgG1 CH1-CH2-CH3, llama VL on human lambda CL) VH: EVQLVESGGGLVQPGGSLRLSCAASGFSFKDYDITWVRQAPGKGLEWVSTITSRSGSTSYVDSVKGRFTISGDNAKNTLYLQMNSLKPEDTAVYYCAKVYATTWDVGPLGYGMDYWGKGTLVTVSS VL: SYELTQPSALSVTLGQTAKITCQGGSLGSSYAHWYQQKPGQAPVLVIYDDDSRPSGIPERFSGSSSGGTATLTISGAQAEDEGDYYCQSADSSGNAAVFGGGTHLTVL ?
Response line: 2
